// provenance: patent US20220056091A1

Reported kon values for a set of binders
Target: T1, Fc fused human IL-18BP isoform a (IL-18BPa) (human, UniProt O95998 31-194)
T1 construct: also called IL-18BP monomer; not shown: Fc part
T1 sequence (looked up): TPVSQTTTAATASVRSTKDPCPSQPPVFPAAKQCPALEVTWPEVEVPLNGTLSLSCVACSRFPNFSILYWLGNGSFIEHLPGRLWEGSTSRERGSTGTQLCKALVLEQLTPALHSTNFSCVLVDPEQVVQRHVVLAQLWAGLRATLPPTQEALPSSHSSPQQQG
Assay: SPR, Fc-IL-18BPa captured, 1:1 model
Procedure: The interaction of the wild type and of modified IL-18 polypeptides with human IL-18 receptor subunits were measured with Surface Plasmon Resonance (SPR) technology. […] The kinetic binding of the IL-18 analytes were measured with a Biacore 8K instrument in two-fold serial dilutions starting at 1 μM down to 0.98 nM. […]

Modified IL-18 polypeptide of SEQ ID NO: 18 (E06K, K53A, T63A) (ligand) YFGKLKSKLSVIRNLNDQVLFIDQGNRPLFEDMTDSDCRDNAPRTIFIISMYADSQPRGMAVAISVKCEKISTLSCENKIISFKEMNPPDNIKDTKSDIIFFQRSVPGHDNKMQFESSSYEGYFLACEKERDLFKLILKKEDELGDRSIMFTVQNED :: 279000 M⁻¹ s⁻¹

Sample Modified IL-18 polypeptide of SEQ ID NO: 71 (E6K, C38S, K53A) (ligand) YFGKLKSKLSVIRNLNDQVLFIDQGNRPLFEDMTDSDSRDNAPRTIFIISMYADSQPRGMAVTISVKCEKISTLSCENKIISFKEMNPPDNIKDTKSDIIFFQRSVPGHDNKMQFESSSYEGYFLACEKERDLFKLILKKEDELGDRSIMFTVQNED ; kon observed: 1.14e+06 M⁻¹ s⁻¹
